The measured values listed here are drawn from patent US20220363665A1.

// reported LYSA for each item listed
# protocol_description: LYSA solubility assay
# Assay type: physicochemical
# applied_conditions: 0.05 M phosphate buffer (pH 6.5)
# Procedure: LYSA study is used to determine the aqueous solubility of tested compounds. Samples are prepared in duplicate from 10 mM DMSO stock solution. After evaporation of DMSO with a centrifugal vacuum evaporator, compounds are dissolved in a 0.05 M phosphate buffer (pH 6.5), stirred for one hr and shaken for two hrs. After one night, the solutions are filtered using a microtiter filter plate. Then the filtrate and its 1/10 dilution are analyzed by HPLC-UV. […]

Recorded LYSA, per entry:
C[C@@H]1CN(c2ccc(C(F)(F)F)c3ncccc23)C[C@H](C(=O)NC2CC3CCCC(C2)N3)O1 (single isomer, unassigned) [Example 34B] ... >610.0 µg/mL
C[C@@H]1CN(c2ccc(C(F)(F)F)c3ncccc23)C[C@H](C(=O)NC2CC3CCC(C2)N3)O1 (single isomer, unassigned) [Example 47B] ... >605.0 µg/mL

Lookup: Recorded LYSA for C[C@@H]1CN(c2ccc(C(F)(F)F)c3ncccc23)C[C@H](C(=O)NC2C3CNCC2COC3)O1 (single isomer, unassigned) [Example 46B] , please?
Found: >667.0 µg/mL

Lookup: Recorded LYSA for CC(NC(=O)[C@H]1CN(c2ccc(C(F)(F)F)c3ncccc23)C[C@@H](C)O1)C1CN(C)CCO1 (single isomer, unassigned) [Example 35B] , please?
Found: >625.0 µg/mL

Lookup: Recorded LYSA for C[C@@H]1CN(c2ccc(C(F)(F)F)c3ncccc23)C[C@H](C(=O)NC2CC3CNCC32)O1 (single isomer, unassigned) [Example 49C] , please?
Found: >710.0 µg/mL

Lookup: Recorded LYSA for C[C@@H]1CN(c2ccc(C(F)(F)F)c3ncccc23)C[C@H](C(=O)NC2CC3CNCC32)O1 (single isomer, unassigned) [Example 49B] , please?
Found: >690.0 µg/mL

====

# assay_system: CYP2D6 (Homo sapiens)
# Construct: tissue BD-Gentest 452117; host or cells: human liver microsomes
# Sequence (P10635 whole entry): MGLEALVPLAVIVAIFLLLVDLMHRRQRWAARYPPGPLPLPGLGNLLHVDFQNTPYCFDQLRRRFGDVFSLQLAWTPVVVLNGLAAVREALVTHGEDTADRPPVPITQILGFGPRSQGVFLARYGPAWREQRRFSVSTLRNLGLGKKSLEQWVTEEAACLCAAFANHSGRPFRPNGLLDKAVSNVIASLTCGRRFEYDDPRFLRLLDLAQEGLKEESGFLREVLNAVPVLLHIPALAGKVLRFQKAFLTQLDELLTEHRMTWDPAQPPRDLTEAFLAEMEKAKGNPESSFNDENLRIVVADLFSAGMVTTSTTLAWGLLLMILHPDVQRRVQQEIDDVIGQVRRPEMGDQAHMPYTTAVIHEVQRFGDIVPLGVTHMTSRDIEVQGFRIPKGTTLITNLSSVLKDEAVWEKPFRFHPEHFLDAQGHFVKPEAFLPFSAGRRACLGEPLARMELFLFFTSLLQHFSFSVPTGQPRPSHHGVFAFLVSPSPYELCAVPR
# protocol_description: CYP inhibition assay in human liver microsome, CYP2D6
# Assay type: in vitro ADME
# applied_conditions: human, liver microsomes, probe dextromethorphan, HLM, dextromethorphan substrate, read-out: CYP inhibition % @10 uM (2D6)
// reported inhibition at 10 min, 10 µM for each item listed
Kindly provide the numeric value in % only, without the unit symbol.

Recorded inhibition at 10 min, 10 µM, per entry:
C[C@@H]1CN(c2ccc(C(F)(F)F)c3ncccc23)C[C@H](C(=O)NC2CNCCOC2)O1 (stereo partly drawn) [Example 14] ... -1
C[C@@H]1CN(c2ccc(C(F)(F)F)c3ncccc23)C[C@H](C(=O)NCC2CCCCN2C)O1 (stereo partly drawn) [Example 4] ... 10
C[C@@H]1CN(c2ccc(C(F)(F)F)c3ncccc23)C[C@H](C(=O)NCC2CN(C)CCO2)O1 (stereo partly drawn) [Example 3] ... 16
C[C@@H]1CN(c2ccc(C(F)(F)F)c3ncccc23)C[C@H](C(=O)NC2CCN(C)CC2)O1 [Example 5] ... 16

Lookup: Recorded inhibition at 10 min, 10 µM for C[C@@H]1CN(c2ccc(C(F)(F)F)c3ncccc23)C[C@H](C(=O)NCCN2CCOCC2)O1 [Example 13] , please?
Found: 0

Lookup: Recorded inhibition at 10 min, 10 µM for C[C@@H]1CN(c2ccc(C(F)(F)F)c3ncccc23)C[C@H](C(=O)NC2CCCNCC2)O1 (stereo partly drawn) [Example 8] , please?
Found: 10

Lookup: Recorded inhibition at 10 min, 10 µM for C[C@@H]1CN(c2ccc(C(F)(F)F)c3ncccc23)C[C@H](C(=O)N2CCC(N)C2)O1 (stereo partly drawn) [Example 10] , please?
Found: 26

Lookup: Recorded inhibition at 10 min, 10 µM for C[C@@H]1CN(c2ccc(Cl)c3ncccc23)C[C@H](C(=O)NC2CCCNCC2)O1 (stereo partly drawn) [Example 25] , please?
Found: 0

Lookup: Recorded inhibition at 10 min, 10 µM for C[C@@H]1CN(c2ccc(C(F)(F)F)c3ncccc23)C[C@H](C(=O)NC2CC3CNCC(C3)C2)O1 (stereo partly drawn) [Example 37] , please?
Found: 3

Lookup: Recorded inhibition at 10 min, 10 µM for C[C@@H]1CN(c2ccc(C(F)(F)F)c3ncccc23)C[C@H](C(=O)NC2CNCC(F)(F)C2)O1 (stereo partly drawn) [Example 28] , please?
Found: 2

Lookup: Recorded inhibition at 10 min, 10 µM for C[C@@H]1CN(c2ccc(C(F)(F)F)c3ncccc23)C[C@H](C(=O)NCC2COCCN2C)O1 (stereo partly drawn) [Example 11] , please?
Found: 5

Lookup: Recorded inhibition at 10 min, 10 µM for C[C@@H]1CN(c2ccc([N+](=O)[O-])c3ncccc23)C[C@H](C(=O)NCC2CN(C)CCO2)O1 (stereo partly drawn) [Example 18] , please?
Found: 0
